- Measurement target: mouse BLyS protein (mouse, UniProt Q9WU72 69-309)
- Sequence (Q9WU72 69-309): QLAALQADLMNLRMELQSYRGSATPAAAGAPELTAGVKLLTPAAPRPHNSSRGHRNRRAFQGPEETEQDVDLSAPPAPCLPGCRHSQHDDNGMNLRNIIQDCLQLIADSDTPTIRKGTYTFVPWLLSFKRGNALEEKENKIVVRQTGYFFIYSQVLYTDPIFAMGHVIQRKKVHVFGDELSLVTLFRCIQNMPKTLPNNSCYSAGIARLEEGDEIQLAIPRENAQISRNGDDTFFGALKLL
- Assay name: cell-based or functional assay
Parameter: mouse B lymphocyte proliferation (OD450 nm), antibody 0.16 nM

[
  {
    "Binder": "111D10D6G3 (antibody, V domains shown, Mouse hybridoma monoclonal antibody purified on Protein G) VH: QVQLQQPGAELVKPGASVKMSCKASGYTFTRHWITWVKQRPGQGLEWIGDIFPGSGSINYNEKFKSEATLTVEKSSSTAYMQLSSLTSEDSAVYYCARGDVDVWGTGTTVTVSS VL: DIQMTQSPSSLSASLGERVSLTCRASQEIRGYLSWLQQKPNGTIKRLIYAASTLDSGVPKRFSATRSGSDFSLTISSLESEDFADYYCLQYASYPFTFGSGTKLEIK",
    "Quantitative readout": 2290
  },
  {
    "Binder": "89A2G5E7 (antibody, V domains shown, Mouse hybridoma monoclonal antibody purified on Protein G) VH: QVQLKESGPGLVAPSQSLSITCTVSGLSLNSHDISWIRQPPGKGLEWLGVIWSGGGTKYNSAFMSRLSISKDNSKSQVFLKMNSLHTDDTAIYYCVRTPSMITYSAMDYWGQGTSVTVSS VL: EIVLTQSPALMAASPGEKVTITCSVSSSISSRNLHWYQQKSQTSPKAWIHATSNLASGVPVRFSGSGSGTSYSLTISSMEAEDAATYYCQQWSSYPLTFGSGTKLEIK",
    "Quantitative readout": 2370
  },
  {
    "Binder": "67A2E1D10 (antibody, V domains shown, Mouse hybridoma monoclonal antibody purified on Protein G) VH: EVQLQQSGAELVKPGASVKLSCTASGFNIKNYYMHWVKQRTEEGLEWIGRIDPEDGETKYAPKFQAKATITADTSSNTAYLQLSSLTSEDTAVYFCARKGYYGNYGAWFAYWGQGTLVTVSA VL: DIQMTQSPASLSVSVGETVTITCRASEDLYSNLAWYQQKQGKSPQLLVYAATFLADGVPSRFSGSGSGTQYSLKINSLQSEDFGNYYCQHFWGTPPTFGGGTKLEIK",
    "Quantitative readout": 2330
  },
  {
    "Binder": "97E7B3F2 (antibody, V domains shown, Mouse hybridoma monoclonal antibody purified on Protein G) VH: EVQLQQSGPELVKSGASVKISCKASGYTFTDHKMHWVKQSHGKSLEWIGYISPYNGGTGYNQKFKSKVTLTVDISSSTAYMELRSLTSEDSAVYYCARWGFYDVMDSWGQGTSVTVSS VL: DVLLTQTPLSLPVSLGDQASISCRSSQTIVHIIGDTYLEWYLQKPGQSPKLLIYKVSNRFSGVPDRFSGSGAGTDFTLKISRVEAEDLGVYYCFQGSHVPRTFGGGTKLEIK",
    "Quantitative readout": 2360
  },
  {
    "Binder": "L1D12 (antibody, V domains shown, From a human naive scFv phage library; also called human BLyS antibody L1D12; LID12) VH: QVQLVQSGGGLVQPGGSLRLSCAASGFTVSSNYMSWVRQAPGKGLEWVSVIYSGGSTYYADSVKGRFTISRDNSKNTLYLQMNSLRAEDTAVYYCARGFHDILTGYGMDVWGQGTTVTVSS VL: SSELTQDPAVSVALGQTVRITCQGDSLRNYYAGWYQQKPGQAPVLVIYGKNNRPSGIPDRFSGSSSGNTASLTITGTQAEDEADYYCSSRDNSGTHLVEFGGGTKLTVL",
    "Quantitative readout": 2520
  }
]
